Test system: M14 melanoma
METHOD_DESCRIPTION: NCI tumour cell line growth inhibition, 48 h; in the data active = GI50 below about 0.43 µM; inactive = the rest
Possible outcomes: active, inactive

>  <STRUCTURE_STRING>
CC(=O)/C(=C/c1ccccc1)C(=O)CC(C)C

>  <CLASS_NAME>
inactive

$$$$
>  <STRUCTURE_STRING>
COc1cccc(/C=C/C(=O)c2ccc(SC)cc2)c1OC

>  <CLASS_NAME>
inactive

$$$$
>  <STRUCTURE_STRING>
Nc1c(C(=O)Nc2ccccc2)sc2nc3c(cc12)CCCCC3

>  <CLASS_NAME>
active

$$$$
>  <STRUCTURE_STRING>
CCCCOC(=O)c1ccc(N)cc1

>  <CLASS_NAME>
inactive

$$$$
>  <STRUCTURE_STRING>
Cn1c(=O)c(Oc2ccc(F)cc2F)cc2cnc(NC(C)(C)CO)nc21

>  <CLASS_NAME>
inactive

$$$$

* * *

This section presents compounds with their documented TGI values.
Tested on: UO-31 renal
METHOD_DESCRIPTION: NCI tumour cell line growth inhibition, 48 h
MEASURED_PROPERTY: TGI

>  <COMPOUND>
CC1CN=C(NS(=O)(=O)c2cc(C(=O)Nc3ccc(Cl)cc3)c(Cl)cc2S)NN1 (stereo not drawn)

>  <MEAS_VALUE>
> 100 µM

$$$$
>  <COMPOUND>
O=C/C1=C/C2=Cc3ccccc3C=C(/C=C(/C=O)C1)C2

>  <MEAS_VALUE>
> 100 µM

$$$$
>  <COMPOUND>
CN(CCCCCl)P(=O)(OCCS(=O)(=O)CC(NC(=O)CCC(N)C(=O)O)C(=O)NC(C(=O)O)c1ccccc1)OCC1OC(n2ccc(N)nc2=O)C(O)C1O (stereo not drawn)

>  <MEAS_VALUE>
> 59.7 µM

$$$$

* * *

Test system: MALME-3M melanoma
METHOD_DESCRIPTION: NCI tumour cell line growth inhibition, 48 h
This section presents compounds with their documented TGI values.
MEASURED_PROPERTY: TGI (µM)

>  <COMPOUND>
O=C1C(=C(C(F)(F)Cl)C(F)(F)Cl)C2CCC1C2 (configuration not stated)

>  <TARGET_ENTITY>
MALME-3M melanoma

>  <MEASURED_PROPERTY>
TGI

>  <READOUT_RELATION>
=

>  <MEAS_VALUE>
3.2

$$$$
>  <COMPOUND>
N#CC(C(=O)C(=O)Nc1ccccc1)c1ccccc1 (configuration not stated)

>  <TARGET_ENTITY>
MALME-3M melanoma

>  <MEASURED_PROPERTY>
TGI

>  <READOUT_RELATION>
>

>  <MEAS_VALUE>
100

$$$$
>  <COMPOUND>
CN(C)CCN1C(=O)c2cccc3cc([N+](=O)[O-])cc(c23)C1=O

>  <TARGET_ENTITY>
MALME-3M melanoma

>  <MEASURED_PROPERTY>
TGI

>  <READOUT_RELATION>
=

>  <MEAS_VALUE>
1.84

$$$$
>  <COMPOUND>
COC(=O)C1Cc2ccc(O)c(O)c2CN1 (configuration not stated)

>  <TARGET_ENTITY>
MALME-3M melanoma

>  <MEASURED_PROPERTY>
TGI

>  <READOUT_RELATION>
=

>  <MEAS_VALUE>
98.7

$$$$
>  <COMPOUND>
COc1cc2c(c(OC)c1OC)C(=O)[C@@H]1[C@H]2N1C(=O)NCCCl

>  <TARGET_ENTITY>
MALME-3M melanoma

>  <MEASURED_PROPERTY>
TGI

>  <READOUT_RELATION>
>

>  <MEAS_VALUE>
100

$$$$
>  <COMPOUND>
O=S(=O)([O-])c1ccc(N=Cc2ccccc2[O-])cc1.O=S(=O)([O-])c1ccc(N=Cc2ccccc2[O-])cc1.[Co+2]

>  <TARGET_ENTITY>
MALME-3M melanoma

>  <MEASURED_PROPERTY>
TGI

>  <READOUT_RELATION>
>

>  <MEAS_VALUE>
100

$$$$
>  <COMPOUND>
C[C@@]1(C(=O)O)CCC[C@]2(C)C1CC[C@@]13C[C@@](O)(CC[C@]12O)[C@@]1(CO1)C3 (some centres not stated)

>  <TARGET_ENTITY>
MALME-3M melanoma

>  <MEASURED_PROPERTY>
TGI

>  <READOUT_RELATION>
>

>  <MEAS_VALUE>
100

$$$$
>  <COMPOUND>
COC(=O)c1c(C(=O)OC)c2ccccn2c1-c1cc(OC)c(Br)c(=O)o1

>  <TARGET_ENTITY>
MALME-3M melanoma

>  <MEASURED_PROPERTY>
TGI

>  <READOUT_RELATION>
>

>  <MEAS_VALUE>
100

$$$$
>  <COMPOUND>
Cc1c2ccn(O)cc2c(C)c2c1nc1ccccc12

>  <TARGET_ENTITY>
MALME-3M melanoma

>  <MEASURED_PROPERTY>
TGI

>  <READOUT_RELATION>
>

>  <MEAS_VALUE>
41.8

$$$$
>  <COMPOUND>
COc1ccc(C=Nc2c(C(=O)Nc3cccc(Cl)c3C)sc3nc(C)c(C(=O)/C=C/c4ccc(OC)cc4)cc23)cc1

>  <TARGET_ENTITY>
MALME-3M melanoma

>  <MEASURED_PROPERTY>
TGI

>  <READOUT_RELATION>
>

>  <MEAS_VALUE>
50

$$$$
>  <COMPOUND>
N.N.N.N.N.NC(=O)[O-].[Co+3].[I-]

>  <TARGET_ENTITY>
MALME-3M melanoma

>  <MEASURED_PROPERTY>
TGI

>  <READOUT_RELATION>
>

>  <MEAS_VALUE>
100

$$$$
>  <COMPOUND>
O=C1C(Cl)=C(Nc2ccc(Nc3ccccc3)c(NC3=C(Cl)C(=O)c4ccccc4C3=O)c2)C(=O)c2ccccc21

>  <TARGET_ENTITY>
MALME-3M melanoma

>  <MEASURED_PROPERTY>
TGI

>  <READOUT_RELATION>
=

>  <MEAS_VALUE>
5.71

$$$$
>  <COMPOUND>
COc1ccc(/C=C/C(=O)/C=C/c2ccc(OC)cc2OC)c(OC)c1

>  <TARGET_ENTITY>
MALME-3M melanoma

>  <MEASURED_PROPERTY>
TGI

>  <READOUT_RELATION>
=

>  <MEAS_VALUE>
26.9

$$$$
>  <COMPOUND>
COc1cc2c3cc1Oc1c(OC)c(OC)cc4c1C(=NCC4)Cc1ccc(cc1)Oc1cc(ccc1O)C[C@H]3N(C)CC2

>  <TARGET_ENTITY>
MALME-3M melanoma

>  <MEASURED_PROPERTY>
TGI

>  <READOUT_RELATION>
=

>  <MEAS_VALUE>
18

$$$$
>  <COMPOUND>
CC1(C)[C@@H]2CC[C@]1(C)[C@H](OC(=O)/C=C/c1ccccc1)C2

>  <TARGET_ENTITY>
MALME-3M melanoma

>  <MEASURED_PROPERTY>
TGI

>  <READOUT_RELATION>
=

>  <MEAS_VALUE>
38.5

$$$$
>  <COMPOUND>
CO[C@H]1C=CO[C@@]2(C)Oc3c(C)c(O)c4c(O)c(c(CN5CCN(C)CC5)c(O)c4c3C2=O)NC(=O)/C(C)=C\C=C[C@H](C)[C@H](O)C(C)[C@@H](O)C(C)[C@H](OC(C)=O)[C@@H]1C (some centres not stated)

>  <TARGET_ENTITY>
MALME-3M melanoma

>  <MEASURED_PROPERTY>
TGI

>  <READOUT_RELATION>
>

>  <MEAS_VALUE>
100

$$$$
>  <COMPOUND>
O=C(/C=C\c1cccc2ccccc12)c1ccc(F)cc1

>  <TARGET_ENTITY>
MALME-3M melanoma

>  <MEASURED_PROPERTY>
TGI

>  <READOUT_RELATION>
=

>  <MEAS_VALUE>
32.1

$$$$
>  <COMPOUND>
COc1ccccc1Cc1ccc(C2C=CC3(CC(=O)C=C3C)C(=O)C2)o1 (configuration not stated)

>  <TARGET_ENTITY>
MALME-3M melanoma

>  <MEASURED_PROPERTY>
TGI

>  <READOUT_RELATION>
=

>  <MEAS_VALUE>
47.5

$$$$
>  <COMPOUND>
BrC(Br)=C1C(=C(Br)Br)C(Br)C1Br (configuration not stated)

>  <TARGET_ENTITY>
MALME-3M melanoma

>  <MEASURED_PROPERTY>
TGI

>  <READOUT_RELATION>
=

>  <MEAS_VALUE>
1.59

$$$$
>  <COMPOUND>
C[C@H]1/C(=C/C(=O)OCCN(C)C)CC[C@H]2[C@H]1C(=O)C[C@H]1C(C)(C)[C@@H](O)CC[C@]21C

>  <TARGET_ENTITY>
MALME-3M melanoma

>  <MEASURED_PROPERTY>
TGI

>  <READOUT_RELATION>
>

>  <MEAS_VALUE>
100

$$$$
>  <COMPOUND>
CC(=O)O[C@H]([C@H](OC(C)=O)[C@H](C)OC(C)=O)[C@@H](/C=C/[C@@H]1CC=CC(=O)O1)OC(C)=O

>  <TARGET_ENTITY>
MALME-3M melanoma

>  <MEASURED_PROPERTY>
TGI

>  <READOUT_RELATION>
>

>  <MEAS_VALUE>
100

$$$$
>  <COMPOUND>
NNC(=O)CC(=O)Nc1cccc(Cl)c1

>  <TARGET_ENTITY>
MALME-3M melanoma

>  <MEASURED_PROPERTY>
TGI

>  <READOUT_RELATION>
>

>  <MEAS_VALUE>
100

$$$$
